List of pIC50 values.
Molecular target: MAPK14 (human) (UniProt Q16539)
Sequence (Q16539 whole entry, looked up): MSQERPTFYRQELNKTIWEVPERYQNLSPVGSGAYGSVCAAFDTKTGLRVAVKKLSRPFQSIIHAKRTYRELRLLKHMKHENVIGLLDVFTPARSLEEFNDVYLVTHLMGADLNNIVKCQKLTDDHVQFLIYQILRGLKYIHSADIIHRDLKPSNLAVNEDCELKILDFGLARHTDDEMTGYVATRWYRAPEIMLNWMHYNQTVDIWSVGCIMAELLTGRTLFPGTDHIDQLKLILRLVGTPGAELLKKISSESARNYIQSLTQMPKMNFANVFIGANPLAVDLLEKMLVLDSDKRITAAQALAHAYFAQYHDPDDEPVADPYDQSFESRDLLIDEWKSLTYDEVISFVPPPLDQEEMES
Assay: Inhibition of TNF Production (U937 Cells)
pIC50: −log10 of the molar value.
Endpoint: pIC50

[[record]]
structure_as_smiles = "Cc1cccc(-n2ncc(C)c2-c2ccncc2)c1"
limit_sign = "="
test_value = 6.18

[[record]]
structure_as_smiles = "Cc1cc(-c2ccnc(C#N)c2)n(-c2ccc(F)cc2)n1"
limit_sign = "<"
test_value = 5.00

[[record]]
structure_as_smiles = "Cc1cccc(-n2nc(C)cc2-c2ccnc(C#N)c2)c1"
limit_sign = "="
test_value = 5.78


---

Target: MAPK14 (human) (UniProt Q16539)
Assay: Inhibition of TNF Production (PBMC)
Endpoint: IC50 (µM)

[[record]]
structure_as_smiles = "Cc1cccc(-n2nc(C)cc2-c2ccnc(S(C)(=O)=O)c2)c1"
measured_target = "MAPK14 (human) (UniProt Q16539)"
limit_sign = ">"
test_value = 10

[[record]]
structure_as_smiles = "Cc1ccc(-n2nc(C)cc2-c2cccc(N)c2)cc1"
measured_target = "MAPK14 (human) (UniProt Q16539)"
limit_sign = ">"
test_value = 10

[[record]]
structure_as_smiles = "Cc1ccc(-n2nc(C)cc2-c2ccnc(Cl)c2)cc1"
measured_target = "MAPK14 (human) (UniProt Q16539)"
limit_sign = "="
test_value = 2.9

[[record]]
structure_as_smiles = "Cc1cc(-c2ccnc(N=[N+]=[N-])c2)n(-c2cccc(F)c2)n1"
measured_target = "MAPK14 (human) (UniProt Q16539)"
limit_sign = "="
test_value = 2.2

[[record]]
structure_as_smiles = "Fc1ccc(-n2ncc(N3CCNCC3)c2-c2ccncc2)cc1"
measured_target = "MAPK14 (human) (UniProt Q16539)"
limit_sign = ">"
test_value = 10

[[record]]
structure_as_smiles = "NC(=O)c1cnn(-c2ccc(F)cc2)c1-c1ccncc1"
measured_target = "MAPK14 (human) (UniProt Q16539)"
limit_sign = ">"
test_value = 10

[[record]]
structure_as_smiles = "Cc1cc(-c2ccnc(NCc3ccccc3)c2)n(-c2ccc(Cl)cc2)n1"
measured_target = "MAPK14 (human) (UniProt Q16539)"
limit_sign = "="
test_value = 0.3

[[record]]
structure_as_smiles = "Fc1ccc(-n2nccc2-c2ccnc(Cl)c2)cc1"
measured_target = "MAPK14 (human) (UniProt Q16539)"
limit_sign = "="
test_value = 8.1

[[record]]
structure_as_smiles = "CNc1cc(-c2cc(C)nn2-c2ccc(C)cc2)ccn1"
measured_target = "MAPK14 (human) (UniProt Q16539)"
limit_sign = "="
test_value = 0.1

